- System: PBMC from 32 patients with chronic HCV
- test_method_notes: T cell proliferation assay ((3H)-thymidine incorporation, stimulation index) with PBMC of chronic HCV patients
- Assay type: cell-based, human
- assay_conditions: patient 620; αIFN non-responder (NR); week 20 of αIFN therapy
assay_metric: stimulation index (SI), T-cell recognition

Query: Tell me the measured stimulation index (SI), T-cell recognition of LMGYIPLVGAPLGGAARALA (hepatitis C virus) [C23] , please.
Response: 4.1

----------
- Test system: PBMC from 32 patients with chronic HCV
- test_method_notes: T cell proliferation assay ((3H)-thymidine incorporation, stimulation index) with PBMC of chronic HCV patients
- Assay type: cell-based, human
- assay_conditions: 8 proliferative responders to pools 2 and/or 3 among 11 interferon-responder HCV patients
assay_metric: number of patients that recognized the single peptide
Answers are plain numbers.

- VLEDGVNYATGNLPGCSFSI (hepatitis C virus) [C27]: 6
- GGAARALAHGVRVLEDGVNY (hepatitis C virus) [C25]: 5
- PTDPRRRSRNLGKVIDTLTC (hepatitis C virus) [C19]: 3

Now take the following sequence into account.
Query: Fill in the recorded number of patients that recognized the single peptide for this sequence, with PBMC from 32 patients with chronic HCV as test system: LMGYIPLVGAPLGGAARALA (hepatitis C virus) [C23]
Response: 3

----------
- System: PBMC from 32 patients with chronic HCV
- test_method_notes: T cell proliferation assay ((3H)-thymidine incorporation, stimulation index) with PBMC of chronic HCV patients
- Format: cell-based, human
- assay_conditions: both αIFN responders tested
assay_metric: LPR in αIFN responders (summary of Table 7)

See these solved cases before continuing.
* GGAARALAHGVRVLEDGVNY (hepatitis C virus) [C25] | highest LPR
* PTDPRRRSRNLGKVIDTLTC (hepatitis C virus) [C19] | highest LPR
* GRTWAQPGYPWPLYGNEGCG (hepatitis C virus) [C13] | highest LPR
* KVIDTLTCGFADLMGYIPLV (hepatitis C virus) [C21] | highest LPR

Now take the following sequence into account.
Query: Fill in the recorded LPR in αIFN responders (summary of Table 7) for this sequence, with PBMC from 32 patients with chronic HCV as test system: VLEDGVNYATGNLPGCSFSI (hepatitis C virus) [C27]
Response: highest LPR
